What melting point was measured for each of the following?

Query: Request the reported melting point associated with C[C@]12CC[C@H]3[C@@H](CC=C4C[C@@H](O)CC[C@@]43C)[C@@H]1C/C(=C\c1cccc(OCCCn3ccnc3)c1)[C@@H]2O
Result: 133 to 135 °C

Query: Recorded melting point for CC(=O)O[C@H]1CC[C@@]2(C)C(=CC[C@H]3[C@@H]4CC(=Cc5cccc(OCCCn6ccnc6)c5)[C@H](OC(C)=O)[C@@]4(C)CC[C@@H]32)C1 , please?
Result: 97 to 99 °C

Query: Reported melting point, compound C[C@]12CC[C@H]3[C@@H](/C(=N\OCCCn4ccnc4)C=C4C[C@@H](O)CC[C@@]43C)[C@@H]1CC[C@@H]2O : ____
Result: 205 to 206 °C
